FYI, the data here is from patent US20210045385A1.

# Tested on: barnyardgrass (Echinochloa crus-galli)
# test-name: Test A preemergence, visual plant response rating
# Format: in vivo
# experimental-conditions: 500 g ai/ha Preemergence; approx. 10 days
What Barnyardgrass plant response rating (0 to 100 scale) was measured for each of the following?
Hey, just send me the number, nothing else.

The compound CON=C(c1c(O)c(C)nn(C)c1=O)c1ccc(F)c2ccccc12 [Compound 51] showed Barnyardgrass plant response rating (0 to 100 scale) equal to 80

The compound CCCO/N=C(\c1c(O)c(C)nn(C)c1=O)c1cccc2ccccc12 [Compound 80] showed Barnyardgrass plant response rating (0 to 100 scale) equal to 80

The compound CCO/N=C(/c1ccc(C)cc1)c1c(O)c(C)nn(C)c1=O [Compound 16] showed Barnyardgrass plant response rating (0 to 100 scale) equal to 0

The compound CON=C(c1c(OC(C)=O)c(C)nn(C)c1=O)c1cccc2ccccc12 [Compound 48] showed Barnyardgrass plant response rating (0 to 100 scale) equal to 70

The compound C=CCO/N=C(\c1c(O)c(C)nn(C)c1=O)c1ccc(F)c2ccccc12 [Compound 86] showed Barnyardgrass plant response rating (0 to 100 scale) equal to 90

The compound CO/N=C(\c1cccc(C)c1F)c1c(O)c(C)nn(C)c1=O [Compound 50] showed Barnyardgrass plant response rating (0 to 100 scale) equal to 60

The compound CCO/N=C(\c1c(O)c(C)nn(C)c1=O)c1cccc2ccccc12 [Compound 79] showed Barnyardgrass plant response rating (0 to 100 scale) equal to 80

The compound CON=C(c1cccc(F)c1)c1c(O)c(C)nn(C)c1=O [Compound 64] showed Barnyardgrass plant response rating (0 to 100 scale) equal to 0

The compound C=CCc1ccccc1C(=NOC)c1c(O)c(C)nn(C)c1=O [Compound 122] showed Barnyardgrass plant response rating (0 to 100 scale) equal to 30

###

# Test system: ragweed (common ragweed, Ambrosia elatior)
# test-name: Test A postemergence, visual plant response rating
# Type: in vivo
# experimental-conditions: 500 g ai/ha, postemergence; 0 is no effect, 100 is complete control
Class 1: Ragweed plant response rating (0 to 100 scale) at least 70. Class 0: Ragweed plant response rating (0 to 100 scale) below 70.

Query: Does the compound "CO/N=C(/c1cc(C)ccc1C)c1c(O)c(C)nn(C)c1=O" have recorded Ragweed plant response rating (0 to 100 scale) that is 70 or more?
Response: 0

Query: Does the compound "CCO/N=C(/c1cccc(C)c1C)c1c(O)c(C)nn(C)c1=O" have recorded Ragweed plant response rating (0 to 100 scale) that is 70 or more?
Response: 0

Query: Does the compound "CO/N=C(/c1c(OC(C)=O)c(Cl)nn(C)c1=O)c1cccc2ccccc12" have recorded Ragweed plant response rating (0 to 100 scale) that is 70 or more?
Response: 1

Query: Does the compound "CO/N=C(\c1cccc(C#N)c1)c1c(O)c(C)nn(C)c1=O" have recorded Ragweed plant response rating (0 to 100 scale) that is 70 or more?
Response: 0

Query: Does the compound "CO/N=C(\c1csc(C)c1)c1c(O)c(C)nn(C)c1=O" have recorded Ragweed plant response rating (0 to 100 scale) that is 70 or more?
Response: 0

Query: Does the compound "CCO/N=C(/c1c(O)c(C)nn(C)c1=O)c1ccc(F)c2ccccc12" have recorded Ragweed plant response rating (0 to 100 scale) that is 70 or more?
Response: 1

Query: Does the compound "CO/N=C(/c1cccc(C)c1)c1c(O)c(C2CC2)nn(C)c1=O" have recorded Ragweed plant response rating (0 to 100 scale) that is 70 or more?
Response: 0

Query: Does the compound "CO/N=C(/c1cccc(F)c1)c1c(O)c(C)nn(C)c1=O" have recorded Ragweed plant response rating (0 to 100 scale) that is 70 or more?
Response: 1

Query: Does the compound "CO/N=C(\c1c(C)cccc1F)c1c(O)c(C)nn(C)c1=O" have recorded Ragweed plant response rating (0 to 100 scale) that is 70 or more?
Response: 0

Query: Does the compound "CCO/N=C(\c1cccc(Cl)c1)c1c(O)c(C)nn(C)c1=O" have recorded Ragweed plant response rating (0 to 100 scale) that is 70 or more?
Response: 1

Query: Does the compound "CO/N=C(\c1cscc1C)c1c(O)c(C)nn(C)c1=O" have recorded Ragweed plant response rating (0 to 100 scale) that is 70 or more?
Response: 1

Query: Does the compound "CO/N=C(/c1cccc(C)c1C)c1c(O)c(C)nn(C)c1=O" have recorded Ragweed plant response rating (0 to 100 scale) that is 70 or more?
Response: 0

Query: Does the compound CON=C(c1c(O)c(C)nn(C)c1=O)c1cccc2ccc(Cl)cc12 [Compound 110] have recorded Ragweed plant response rating (0 to 100 scale) that is 70 or more?
Response: 1

Query: Does the compound "CO/N=C(/c1c(O)c(Cl)nn(C)c1=O)c1cccc2ccccc12" have recorded Ragweed plant response rating (0 to 100 scale) that is 70 or more?
Response: 1

Query: Does the compound "CO/N=C(\c1cccc(Cl)c1)c1c(O)c(C)nn(C)c1=O" have recorded Ragweed plant response rating (0 to 100 scale) that is 70 or more?
Response: 1

Query: Does the compound CON=C(c1c(O)c(C)nn(C)c1=O)c1cccc2ccc(Cl)cc12 [Compound 111] have recorded Ragweed plant response rating (0 to 100 scale) that is 70 or more?
Response: 1

Query: Does the compound "CCn1nc(C)c(O)c(/C(=N/OC)c2cccc(C)c2)c1=O" have recorded Ragweed plant response rating (0 to 100 scale) that is 70 or more?
Response: 0

Query: Does the compound "CO/N=C(/c1c(O)c(C)nn(C)c1=O)c1cc(Br)cc2ccccc12" have recorded Ragweed plant response rating (0 to 100 scale) that is 70 or more?
Response: 1
